Target: recombinant human VAP-1 (Homo sapiens, UniProt Q16853)
Construct: purchased R&D systems
Sequence (Q16853 1-763): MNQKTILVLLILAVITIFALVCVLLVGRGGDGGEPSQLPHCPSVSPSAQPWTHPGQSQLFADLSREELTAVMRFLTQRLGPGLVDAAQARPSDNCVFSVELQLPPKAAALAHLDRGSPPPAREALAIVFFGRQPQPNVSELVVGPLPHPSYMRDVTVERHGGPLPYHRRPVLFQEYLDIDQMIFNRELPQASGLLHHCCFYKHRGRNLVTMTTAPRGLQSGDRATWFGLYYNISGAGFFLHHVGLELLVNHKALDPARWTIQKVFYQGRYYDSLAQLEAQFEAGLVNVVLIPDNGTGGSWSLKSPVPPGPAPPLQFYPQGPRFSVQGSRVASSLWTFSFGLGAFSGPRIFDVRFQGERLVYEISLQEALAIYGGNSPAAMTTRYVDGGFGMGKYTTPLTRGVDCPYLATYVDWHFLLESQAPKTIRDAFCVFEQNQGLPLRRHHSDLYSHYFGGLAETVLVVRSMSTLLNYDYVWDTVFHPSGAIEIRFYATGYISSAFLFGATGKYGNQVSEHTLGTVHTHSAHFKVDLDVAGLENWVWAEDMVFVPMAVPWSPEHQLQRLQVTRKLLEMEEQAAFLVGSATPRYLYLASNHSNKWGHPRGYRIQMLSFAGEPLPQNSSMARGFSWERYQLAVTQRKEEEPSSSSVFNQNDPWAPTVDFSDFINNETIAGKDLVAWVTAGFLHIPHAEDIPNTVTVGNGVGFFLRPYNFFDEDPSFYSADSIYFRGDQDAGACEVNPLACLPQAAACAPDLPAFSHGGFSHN
Assay: Activity on recombinant human VAP-1, Amplex Red HRP-coupled hydrogen peroxide assay, benzylamine substrate
Assay type: biochemical
Conditions: recombinant human VAP-1, benzylamine substrate, 30 min preincubation at 37° C.; read-out: Inhibitory Activity (IC50, nM) human VAP-1
Structures can show the parent of a compound that is named as a salt.
assay.endpoint: IC50 (nM)

| molecule | units | value.reported |
| --- | --- | --- |
| CC(C)c1nc(-c2cccc(-c3cccc(-n4cnn(C/C(=C/F)CN)c4=O)c3)c2)no1 [Example 65, hydrochloride] | nM | 0.93 |

[a] Cc1cc(-c2ccc3nonc3c2)ncc1-n1cnn(C/C(=C/F)CN)c1=O [Example 125]
[b] NC/C(=C\F)Cn1ncn(-c2ncc(Br)s2)c1=O [Example 41, hydrochloride]
Q. Two entries are listed, a and b . Which one carries the higher IC50? In your reply, give the label of the chosen option.
A. a
(a: 1.2 nM, b: 0.6 nM)

---

Target: recombinant human VAP-1 (Homo sapiens)
Construct: purchased R&D systems
Assay: Activity on recombinant human VAP-1, Amplex Red HRP-coupled hydrogen peroxide assay, benzylamine substrate
Type: biochemical
Details: recombinant human VAP-1, benzylamine substrate, 30 min preincubation at 37° C.; read-out: Inhibitory Activity (IC50, nM) human VAP-1
Protocol: The compounds according to the present technology were evaluated in terms of activity on recombinant human VAP-1 (R&D systems) by measuring the level of hydrogen peroxide in horseradish peroxidase (HRP)-coupled reaction using Amplex Red Hydrogen Peroxide Assay Kit (Molecular Probes, Invitrogen, USA). […] The inhibitory effect of the compounds was measured as a decrease (%) in the signal rate as compared to the control group without any inhibitor (only diluted DMSO). […]
Structures can show the parent of a compound that is named as a salt.
assay.endpoint: IC50 (nM)

| compound | assay.endpoint | units | value.reported |
| --- | --- | --- | --- |
| CC(=O)Nc1ccc(-c2cccc(-n3cnn(C/C(=C/F)CN)c3=O)c2)cc1 [Example 57, hydrochloride] | IC50 | nM | 0.38 |

[P] NC/C(=C\F)Cn1ncn(-c2cccc(-c3ccc(N4CCOCC4)cc3)c2)c1=O [Example 74, hydrochloride]
[Q] Cc1cc(-n2cnn(C/C(=C/F)CN)c2=O)cnc1-c1ccc2c(c1)OCO2 [Example 117]
Q. Input pair: P , Q . Output: entry with lower IC50. In your reply, give the label of the chosen option.
A. Q

[1] Cc1cc(-c2ccc(S(C)(=O)=O)cc2)cnc1-n1cnn(C/C(=C/F)CN)c1=O [Example 133, hydrochloride]
[2] NC/C(=C/F)Cn1ncn(-c2ncc(Br)cc2F)c1=O [Example 35, hydrochloride]
Q. Two entries are listed, 1 and 2 . Which one carries the higher IC50? In your reply, give the label of the chosen option.
A. 2
(2: 6.6 nM, 1: 0.84 nM)
